system tested: T1, PUF4 RNA-binding domain (Saccharomyces cerevisiae, UniProt P25339 537-888)
T1 sequence: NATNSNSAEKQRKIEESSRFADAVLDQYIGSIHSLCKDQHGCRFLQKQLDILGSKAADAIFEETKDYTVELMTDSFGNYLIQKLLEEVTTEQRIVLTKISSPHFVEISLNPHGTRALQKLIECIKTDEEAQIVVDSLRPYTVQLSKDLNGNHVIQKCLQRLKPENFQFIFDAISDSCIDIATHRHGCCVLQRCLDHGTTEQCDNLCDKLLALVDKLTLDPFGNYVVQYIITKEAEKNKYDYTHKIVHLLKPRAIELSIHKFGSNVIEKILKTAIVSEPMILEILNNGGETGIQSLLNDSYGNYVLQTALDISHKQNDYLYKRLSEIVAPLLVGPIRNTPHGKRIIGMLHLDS
test details: Mg; RNA-MaP; 20 mM Na-HEPES pH 7.4, 30 mM KOAc, 0.75 mM MgCl2, 0.1% Tween-20, 5% glycerol, 0.1 mg/mL BSA, 2 mM DTT; 25 C; 0.0125-409.6 nM protein
protocol conditions: tags: N-His6-TEV cleaved; C-SNAP kept, Cy3B-labelled; label: tethered on chip by stalled RNA polymerase
pKd: −log10 of the molar value.
pKd class ranges: LOW: < 7; MEDIUM: ≥ 7 and < 8; HIGH: ≥ 8

### Prompt For Ic_S4_P4E.1_K4.1_C4.1_H4.1_A4.1_[T5A]_[A6C]_[T7C]_F4.1_[T8G]_[A9C]_T4.1 (ssRNA) RNA: UUUGACAACUGAUCGUUCUUUCUUGUAACCGCUUCUUUCUCGAUCAGUUGUCUUU , which pKd bin applies?
### Response LOW

### Prompt Please answer likewise for UCUCUUAGACACUUAUUACAUCUCUU (ssRNA) [Id_ii_S1_P5E.4_K5.3_C5.2_[C-2A]_[T-1G]_H5.3_A5.1_F5.1_T5.2_[T11C]]
### Response LOW

### Prompt Same for UCUCUUUGUACAUUGUCUCUU (ssRNA) [Ic_S1_P4E.1_K4.1_C4.1_H4.1_A4.1_[T5C]_F4.1_[A9G]_T4.1]
### Response HIGH

### Prompt Okay, and UCUCUUUGUAUUGGUCUCUU (ssRNA) [Ic_S1_P3E.1_K3.1_C3.1_H3.1_A3.1_[A6T]_F3.1_[T7G]_[A8G]_T3.1] ?
### Response LOW

### Prompt Input ACAAACUGCAUAUGACAAAC (ssRNA) [Ib_S3_P3E.1_K3.1_C3.1_H3.1_[T3C]_A3.1_F3.1_[A8G]_T3.1]
### Response LOW

### Prompt Next record, please: Ib_S4_P5E.1_K5.1_C5.1_H5.1_[A4T]_A5.1_F5.1_[T9A]_T5.1 (ssRNA) RNA: UUUGACAACUGAUCGUUCUUUCUUGUUUUAUAAUUCUUUCUCGAUCAGUUGUCUUU
### Response MEDIUM

### Prompt Proceed to UCUCUUCUUAUAUAUAUCUCUCUU (ssRNA) [Id_ii_S1_P3E.3_K3.2_C3.2_H3.2_A3.1_F3.1_T3.2_[A10C]]
### Response LOW

### Prompt Input UCUCUUAGUAAAUUAUCUCUU (ssRNA) [Ib_S1_P4E.1_K4.1_C4.1_H4.1_[T1A]_A4.1_[T5A]_F4.1_T4.1]
### Response LOW

### Prompt Another binder to check: ACAAACUGACACUAUUAUCACAAAC (ssRNA) [Id_ii_S3_P4E.4_K4.3_C4.2_[C-2T]_[T-1G]_H4.3_A4.1_F4.1_T4.2_[G10T]_[T11C]]
### Response LOW

### Prompt Same lookup for ACAAACUUACACUAUUAAAACAAAC (ssRNA) [Id_ii_S3_P4E.4_K4.3_C4.2_[C-2T]_H4.3_A4.1_F4.1_T4.2_[G10A]_[T11A]] , please.
### Response LOW

### Prompt Also, Id_ii_S2_P4E.2_K4.1_C4.2_[C-2A]_[T-1A]_H4.1_A4.1_F4.1_T4.2_[G10A]_[T11C] (ssRNA) RNA: UUUGAUUAAUAUGAUAUCGUUCUUUCUAAUGUAUAUUAACUUCUUUCUCGAUAUCAUAUUAAUCUUU please.
### Response HIGH

### Prompt Follow-up item: ACAAACUGUAUUAUUCCCAACAAAC (ssRNA) [Ie_S3_P5E.1_K5.1_C5.1_H5.1_A5.1_F5.1_[+9CCC]_T5.1]
### Response MEDIUM

### Prompt Follow-up entry: Id_ii_S2_P5E.4_K5.3_C5.2_[C-2A]_[T-1C]_H5.3_A5.1_F5.1_T5.2_[T11C]_[A12G] (ssRNA) RNA: UUUGAUUAAUAUGAUAUCGUUCUUUCUACACACUUAUUACGUUCUUUCUCGAUAUCAUAUUAAUCUUU
### Response LOW
